Origin of values: PubChem BioAssay AID623870

# TESTED SYSTEM: Transforming acidic coiled-coil-containing protein 3 (Homo sapiens) (UniProt Q9Y6A5)
# TEST: inhibitors of ARNT PAS-B binding to TACC3 – biochemical, AlphaScreen, single concentration, primary screen (AID 623870);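 note: 0% = complete ARNT plus TACC3 wells and 100% = ARNT alone without TACC3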
# SETUP CONDITIONS: AlphaScreen His-ARNT PAS-B/GST-TACC3 binding, luminescence; at 9.99 µM; stronger effect = higher value; TACC3 fragment carries E629A point mutation
Screen size: about 390,000 compounds; about 2,600 (0.67%) were called active. The list comes from a sample in which actives are over-represented; it also holds close analogues and randomly drawn compounds.
Measured inhibition accompanies every entry in the list below.
Please give a number only; it is taken to be in %.

Some compounds with known inhibition results, for comparison:
Cn1c(N)c(C(=O)COC(=O)c2ccc3ccccc3c2)c(=O)n(C)c1=O	-4.71
O=C(NNC(=S)Nc1ccccc1)c1cccc(S(=O)(=O)N2CCOCC2)c1	0.545
Cc1noc(C)c1NC(=O)N[C@H]1C=C[C@@H](CC(=O)Nc2ccccc2)O[C@H]1CO	-3.76
CN(C)C(=O)C[C@@H]1CC[C@H]2[C@@H](COC[C@H](O)CN2C(=O)c2ccncc2)O1	-9.54

Please find the next compound below.
Per the record, Cc1ccsc1/C=N/NC(=O)Cc1cc(=O)[nH][nH]1 has inhibition of 1.12

---

# TESTED SYSTEM: Transforming acidic coiled-coil-containing protein 3 (Homo sapiens) (UniProt Q9Y6A5)
# TEST: inhibitors of ARNT PAS-B binding to TACC3 – biochemical, AlphaScreen, single concentration, primary screen (AID 623870);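 note: 0% = complete ARNT plus TACC3 wells and 100% = ARNT alone without TACC3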
# SETUP CONDITIONS: AlphaScreen His-ARNT PAS-B/GST-TACC3 binding, luminescence; at 9.99 µM; stronger effect = higher value; TACC3 fragment carries E629A point mutation
The campaign covered roughly 390,000 compounds. About 2,600 (0.67%) were called active. The sample holds actives, similar compounds and a random draw of the others, so the mix is not that of the screen.
Measured inhibition accompanies every entry in the list below.

O=C(NC1CCCC1)[C@H]1[C@H](CO)[C@H]2Cn3c(ccc(-c4ccccc4F)c3=O)[C@@H]1N2C(=O)CC1CC1	-1.58% (inactive)
CO[C@@H]1CN(C)C(=O)c2cc(NC(=O)Nc3cc(F)ccc3F)ccc2OC[C@@H](C)N(C)C[C@H]1C	11.6% (inactive)
CC(C)NC(=O)Nc1ccc2c(c1)C(=O)N([C@H](C)CO)C[C@H](C)[C@@H](CN(C)S(=O)(=O)c1ccc(F)cc1)OCCCC[C@H](C)O2	-7.08% (inactive)

Please find the next compound below.
Per the record, O=C(Cc1ccncc1)NCC[C@H]1CC[C@@H](NC(=O)Nc2ccc(Cl)cc2)[C@@H](CO)O1 has inhibition of 13.7% (inactive)

---

# TESTED SYSTEM: Transforming acidic coiled-coil-containing protein 3 (Homo sapiens)
# TEST: inhibitors of ARNT PAS-B binding to TACC3 – biochemical, AlphaScreen, single concentration, primary screen (AID 623870);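 note: 0% = complete ARNT plus TACC3 wells and 100% = ARNT alone without TACC3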
# SETUP CONDITIONS: AlphaScreen His-ARNT PAS-B/GST-TACC3 binding, luminescence; at 9.99 µM; stronger effect = higher value; TACC3 fragment carries E629A point mutation
The whole screen tested about 390,000 compounds, of which about 2,600 (0.67%) were called active. Shown is part of a subset that was picked to be rich in actives.
Measured inhibition accompanies every entry in the list below.
Please give a number only; it is taken to be in %.

Some compounds with known inhibition results, for comparison:
CC=Cc1ccc2n(c1=O)C[C@@H]1[C@@H](CO)[C@H](C(=O)NCC)[C@H]2N1CCC(F)(F)F (mixture of isomers)	-2.83
COc1ccccc1-c1cnc2c(c1)C(=O)N([C@H](C)CO)C[C@@H](C)[C@@H](CN(C)Cc1ccncc1)O2	-5.7
CCN(CC)c1ccc(/C=N/Nc2nc(C)cc(C)n2)c(O)c1	69.4
O=C(C[C@@H]1CC[C@H]2[C@@H](COC[C@@H](O)CN2C(=O)Nc2ccc(F)cc2)O1)NCC1CC1	1.68
CC1=NN(c2ccc(Cl)c(C(=O)O)c2)C(=O)/C1=C/c1ccc(-c2ccccc2[N+](=O)[O-])o1	29.2
Cc1nc2ccccc2nc1N/N=C/c1ccc(O)cc1O	69.6
CCN(CC)c1ccc(/C=N/NC(=O)CNC(=O)c2cccs2)cc1	-3.55
Cc1ccc(-c2ccc(/C=C(\C#N)C(N)=S)o2)c([N+](=O)[O-])c1	1.03

Please find the next compound below.
Per the record, CCN(CC)c1ccc(/C=N/NC(=O)c2cnccn2)c(O)c1 has inhibition of 53.5
